- tested-system: T1, AFP158/HLA-A*02:01 complex (human)
- T1 construct: flowed as analyte in SPR
- method-notes: SPR, crude scFv captured, pMHC analyte;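 note: Peptide-MHC complex at several concentrations passed over captured scFv, association then buffer-driven dissociation, on- and off-rates fitted from the curves and KD estimated from them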
property: kon (M⁻¹ s⁻¹)
Unit M⁻¹ s⁻¹ implied. Number only.

Using the record for AS170036 VL1VH1-VLH98F (scFv) scFv: QSALTQPRSVSGSPGQSVTISCAGTSSDVGSENYVSWYQQHPGKAPKLMIYQVNKRASGVPDRFSGSKSGNTASLTISGLQAEDEADYYCASYRSSDFNIVFGGGTKLTVLGGGGSGGGGSGGGGSEVQLVESGGGLVQPGGSLRLSCAASGFTFSSYAMSWVRQAPGKGLEWVSTINSGTGSPYYADSVKGRFTISRDNSKNTLYLQMNSLRAEDTAVYYCAKNFFDGSWFLGPPAMDYWGQGTLVTVSSHHHHHH , report its kon.
450000
